Task for the reader: assign each of the following molecules its reported IC50.
- subject of test: Glycylpeptide N-tetradecanoyltransferase (Candida albicans (strain SC5314 / ATCC MYA-2876) (Yeast))
- Sequence (P30418 whole entry): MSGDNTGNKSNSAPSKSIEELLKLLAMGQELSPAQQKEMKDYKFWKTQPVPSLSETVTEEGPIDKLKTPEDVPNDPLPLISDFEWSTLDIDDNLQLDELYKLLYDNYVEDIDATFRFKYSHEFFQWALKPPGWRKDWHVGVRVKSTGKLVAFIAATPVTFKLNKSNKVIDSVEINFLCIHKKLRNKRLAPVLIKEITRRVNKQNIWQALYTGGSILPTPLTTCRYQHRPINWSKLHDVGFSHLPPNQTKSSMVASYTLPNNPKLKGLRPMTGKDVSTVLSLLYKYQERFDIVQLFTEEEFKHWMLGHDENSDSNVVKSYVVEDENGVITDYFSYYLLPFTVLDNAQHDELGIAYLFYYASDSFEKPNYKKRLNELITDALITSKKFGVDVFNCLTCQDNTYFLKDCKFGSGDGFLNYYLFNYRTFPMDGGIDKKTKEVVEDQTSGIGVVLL
- assay details: Inhibition of Candida albicans N-myristoyltransferse

Please fill in: IC50 reported for `O=C(NCCNCc1ccc2ccccc2c1)c1ccc2nc(NCc3ccccn3)sc2c1` = > 10 µM

Please fill in: IC50 reported for `O=C(NCCNCc1ccc2ccccc2c1)c1ccc2nc(NC(=O)c3ccccc3)sc2c1` = 0.16 µM

Please fill in: IC50 reported for `O=C(NCCNCc1ccc2ccccc2c1)c1ccc2nc(NC(=O)c3ccc(Cl)c(Cl)c3)sc2c1` = > 10 µM

Please fill in: IC50 reported for `O=C(NCCNCc1ccc2ccccc2c1)c1ccc2nc(NCc3ccccc3)sc2c1` = > 10 µM
